B1: GFP aptamer (parent)
chain: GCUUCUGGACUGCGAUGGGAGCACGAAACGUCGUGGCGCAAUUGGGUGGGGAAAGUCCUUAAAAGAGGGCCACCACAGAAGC

# Variants of: B1
# testProtocol: HiTS-RAP
# testContext: with EGFP
assayMetric: pKd
Keep in mind that pKd stands for -log10 of concentration in molar terms.

Input line: For `G55C` , what is its reported pKd?
Output line: 7.29

Input line: Using the record for `A26U` , report its pKd.
Output line: 8.36

Input line: Consider the variant `U6A` and give its measured pKd.
Output line: 8.05

Input line: Param item = `C73G` ; retrieve measured pKd.
Output line: 8.14

Input line: Given the entry `C22U` , report its measured pKd.
Output line: 8.02

Input line: // returns reported pKd for input `G33A`
Output line: 7.93

Input line: Requested read-out: pKd. Entry: `U3C`
Output line: 8.35

Input line: For A15G A27G , what is its reported pKd?
Output line: 8.28

Input line: Request the reported pKd associated with A26G U31C
Output line: 8.42

Input line: Please look up its pKd: `A23U`
Output line: 7.95

Input line: Can you look up the measured pKd of A20G A23G for me?
Output line: 8.82

Input line: What pKd value was documented for this variant, `A77U` ?
Output line: 7.97

Input line: So what's the measured pKd for this one? A40G A77G
Output line: 8.33

Input line: Give the measured pKd of C10U A20G .
Output line: 8.42

Input line: So what's the measured pKd for this one? `G25C`
Output line: 8.15

Input line: May I ask what pKd has been recorded for `G21U` ?
Output line: 8.22

Input line: Form field: reported pKd of `G12U`
Output line: 7.72

Input line: # get_value(readout='pKd', item= `C82A` )
Output line: 8.47

Input line: If you can, please state the reported pKd value of `C82G` .
Output line: 8.00

Input line: What does the data say about its pKd? Entry: `C13U`
Output line: 8.34

Input line: Please give the measured pKd for this variant: A26G A77G
Output line: 8.41

Input line: Consider the variant `A66G` and give its measured pKd.
Output line: 7.95

Input line: Using the record for `U3A` , report its pKd.
Output line: 8.45

Input line: Endpoint output: pKd of G25A A26G . Value?
Output line: 8.22

Input line: Report pKd for `A20G` please.
Output line: 8.08

Input line: Entry `A28C` : reported pKd = ?
Output line: 8.16

Input line: Need pKd of A23G U31C , thanks.
Output line: 8.51

Input line: Recorded pKd of `G12C` , please.
Output line: 7.51

Input line: Which pKd value belongs to U11C A77G ?
Output line: 8.04

Input line: // pKd lookup, key: U16C U59C
Output line: 8.12

Input line: # query: pKd of entry `G49C`
Output line: 7.24

Input line: Given A27G G33A , state its recorded pKd.
Output line: 8.29

Input line: Would you mind telling me what pKd value was observed for C22U A28G ?
Output line: 8.00

Input line: For the variant G25A U31C , what pKd is on record?
Output line: 8.43

Input line: Would you mind telling me what pKd value was observed for `C32U` ?
Output line: 8.37

Input line: Entry `G67C` : reported pKd = ?
Output line: 7.93

Input line: # lookup: pKd of `U6G`
Output line: 8.13

Input line: Quick check: pKd of `U4C` ?
Output line: 8.10

Input line: # query: pKd of entry C24U C58U
Output line: 8.62

Input line: So what does the record say about pKd for `G19A` ?
Output line: 7.32

Input line: Need pKd, item U47C A79G
Output line: 7.21

Input line: Give its pKd value. Item: A28G U47C
Output line: 8.96
